- SYSTEM TESTED: High mobility group protein B1 (Homo sapiens)
- Sequence (P09429 whole entry, the tested form may be a part): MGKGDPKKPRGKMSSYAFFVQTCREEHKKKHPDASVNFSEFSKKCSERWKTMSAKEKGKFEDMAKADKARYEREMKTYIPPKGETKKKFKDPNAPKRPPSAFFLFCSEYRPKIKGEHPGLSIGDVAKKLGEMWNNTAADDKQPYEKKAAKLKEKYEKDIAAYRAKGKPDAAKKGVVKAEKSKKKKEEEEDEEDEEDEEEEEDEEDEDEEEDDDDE
- TEST DETAILS: Binding affinity to N-terminal 6His-tagged HMGB1 AI region (1 to 87 residues) (unknown origin) expressed in Escherichia coli JM109 by SPR assay
OUTCOME MEASURE: Kd (nM)

- CN(Cc1cnc2nc(N)nc(N)c2n1)c1ccc(C(=O)N[C@@H](CCC(=O)O)C(=O)O)cc1 [METHOTREXATE]: 500
